- EXPERIMENT_DESCRIPTION: Octanol-buffer distribution coefficient, log D of the compound at pH 7.4
- Format: physicochemical
TEST_READOUT: logD

[[record]]
structure = "O=C1c2ncc3c(c(COCc4ccccc4F)cn3Cc3ccc(F)cc3)c2CCN1O"
test_readout = "logD"
readout_value = 2.47

[[record]]
structure = "O=C1c2ncc3c(c(COCCc4ccccn4)cn3Cc3ccc(F)cc3)c2CCN1O"
test_readout = "logD"
readout_value = 1.56

[[record]]
structure = "O=C1c2ncc3c(c(S(=O)(=O)N4CCCC4)cn3Cc3ccc(F)cc3)c2CCN1O"
test_readout = "logD"
readout_value = 1.63

[[record]]
structure = "O=C1c2ncc3c(c(CN4CCCCC4)cn3Cc3ccc(F)cc3)c2CCN1O"
test_readout = "logD"
readout_value = 1.15

[[record]]
structure = "O=C1c2ncc3c(c(COCC4CCOCC4)cn3Cc3ccc(F)cc3)c2CCN1O"
test_readout = "logD"
readout_value = 1.83

[[record]]
structure = "CN(O)C(=O)c1cc2c(CN3CCC[C@H]3C(N)=O)cn(Cc3ccc(F)cc3)c2cn1"
test_readout = "logD"
readout_value = 1.7


[A] O=C1c2ncc3c(c(CCCOC4CCOCC4)cn3Cc3ccc(F)cc3)c2CCN1O
[B] COCCN(C)Cc1cn(Cc2ccc(F)cc2)c2cnc3c(c12)CCN(O)C3=O
[C] O=C1c2ncc3c(c(S(=O)(=O)N4CCOCC4)cn3Cc3ccc(F)cc3)c2CCN1O
Data request: Reorder: logD, max to min. Write the labels, ordered according to the request.
Data returned: A, B, C
(A: 2.1, B: 1.46, C: 0.18)

Sourced from ChEMBL document CHEMBL1772993
